Read-out: Cytochrome P450 3A7 (Homo sapiens) (UniProt P24462)
Sequence (P24462 whole entry, looked up): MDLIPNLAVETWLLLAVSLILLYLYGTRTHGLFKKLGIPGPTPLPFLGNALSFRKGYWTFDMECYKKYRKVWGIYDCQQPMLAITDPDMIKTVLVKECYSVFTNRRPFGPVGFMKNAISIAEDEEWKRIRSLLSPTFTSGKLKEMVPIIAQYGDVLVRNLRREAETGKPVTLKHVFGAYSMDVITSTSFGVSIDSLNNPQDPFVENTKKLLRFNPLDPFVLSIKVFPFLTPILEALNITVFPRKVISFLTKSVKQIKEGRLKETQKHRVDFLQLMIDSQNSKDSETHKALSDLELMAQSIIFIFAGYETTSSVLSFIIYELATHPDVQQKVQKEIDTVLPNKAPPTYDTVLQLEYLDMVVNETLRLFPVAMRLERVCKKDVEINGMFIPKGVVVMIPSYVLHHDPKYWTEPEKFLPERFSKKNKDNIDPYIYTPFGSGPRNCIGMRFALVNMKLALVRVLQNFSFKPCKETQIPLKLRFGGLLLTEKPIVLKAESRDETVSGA
Assay: LTEA_HepaRG_CYP3A7: Life Technologies and Expression Analysis (LTEA) Assay for CYP3A7 using HepaRG (AID 2283492)
Conditions: mRNA level, 48 h; actives raise or lower the signal
Active and inactive are the calls of the source. Rule for the calls: active = hit-call score of the fitted dose curve at least 0.9, where 1 is the maximum; inactive = score below 0.9.
Outcome codes: active, inactive

| Molecule | Assigned category |
| --- | --- |
| ClC1=C(Cl)C2(Cl)C3C(Cl)C(Cl)CC3C1(Cl)C2(Cl)Cl (stereo not given) | inactive |
| CSC(C)(C)C=NO | inactive |
| CCOC(=O)c1ccccc1C(=O)OCC | inactive |
| CCCCN(CCCC)N=O | inactive |
| CCOc1ccc(C(C)(C)COCc2cccc(Oc3ccccc3)c2)cc1 | active |
| Cc1cccc(N)c1 | inactive |
| CCCCCCCc1ccc(O)cc1 | inactive |
| Nc1ccc(Cl)cc1 | inactive |
| CCCN(CCC)c1c([N+](=O)[O-])cc(C(C)C)cc1[N+](=O)[O-] | inactive |
| c1ccc2c(c1)Nc1ccccc1S2 | inactive |
| CN(C)C(=O)Cl | inactive |
| CCOP(=S)(Oc1ccc([N+](=O)[O-])cc1)c1ccccc1 (stereo not given) | active |
| [N-]=[N+]=[N-] | inactive |
| O=[N+]([O-])c1ccc(Cl)c(Cl)c1 | inactive |
| CCC(C)(C)c1ccc(O)cc1 | inactive |

---

Test: CCTE_Shafer_MEA_dev_correlation_coefficient_mean: CCTE's Neural Network Formation Assay for Mean Correlation Coefficient, Shafer Lab (AID 2284093)
The source made the active and inactive calls. Rule for the calls: active = hit-call score of the fitted dose curve at least 0.9, where 1 is the maximum; inactive = score below 0.9.
Outcome codes: 1.0 for active, 0.0 for inactive

| Compound | Assigned category |
| --- | --- |
| CC(O)C(F)(F)C(F)(F)F (stereo not given) | 0.0 |
| O=C(O)C(F)(F)C(F)(F)C(=O)O | 1.0 |
| CCOc1ccc(C(C)(C)COCc2cccc(Oc3ccccc3)c2)cc1 | 1.0 |
| ClC1=C(Cl)C2(Cl)C3C(Cl)C(Cl)CC3C1(Cl)C2(Cl)Cl (stereo not given) | 1.0 |
| O=C(O)C1C(C(=O)O)C2(Cl)C(Cl)=C(Cl)C1(Cl)C2(Cl)Cl (stereo not given) | 0.0 |

---

Assay: ATG_ERE_CIS: Attagene CIS-FACTORIAL HepG2 Assay for Estrogen Response Element (ERE) (AID 2282940)
Conditions: HepG2 ERE cis-reporter, Attagene RNA transcript; actives raise or lower the signal
Active and inactive are the calls of the source. The calls were made as follows: active = hit-call score of the fitted dose curve at least 0.9, where 1 is the maximum; inactive = score below 0.9.
Metric name: AC50

| Compound | Metric name | Value |
| --- | --- | --- |
| CCCN(CCC)c1c([N+](=O)[O-])cc(C(C)C)cc1[N+](=O)[O-] | AC50 | inactive |
| ClC(Cl)(Cl)c1ccccc1 | AC50 | 45.1 µM (active) |
| O=C(O)C(F)(F)C(F)(F)C(=O)O | AC50 | inactive |
| CCOC(=O)c1ccccc1C(=O)OCC | AC50 | inactive |
| N#Cc1ccc(O)cc1 | AC50 | inactive |
| Cc1cccc(N)c1 | AC50 | inactive |
| CCOP(=S)(Oc1ccc([N+](=O)[O-])cc1)c1ccccc1 (stereo not given) | AC50 | 3.35 µM (active) |
| CCCCCCCc1ccc(O)cc1 | AC50 | 3.89 µM (active) [middle of 4 runs] |
| CCCCc1ccccc1 | AC50 | inactive |
| CC(=O)c1ccc(-c2ccccc2)cc1 | AC50 | 6.56 µM (active) |
| CCOc1ccc(C(C)(C)COCc2cccc(Oc3ccccc3)c2)cc1 | AC50 | inactive |
| Cc1c([N+](=O)[O-])cc2c(c1[N+](=O)[O-])C(C)(C)CC2(C)C | AC50 | inactive |
| CO/N=C(/C(=O)OC)c1ccccc1COc1ccccc1C | AC50 | 42.9 µM (active) |
| COP(=O)(CCC(=O)NCO)OC | AC50 | inactive |
| CCC(C)(C)c1ccc(O)cc1 | AC50 | 2.25 µM (active) |
| NNC(N)=S | AC50 | inactive |
| ClC(Cl)=C(c1ccc(Cl)cc1)c1ccccc1Cl | AC50 | 4.18 µM (active) |
| CCOP(=S)(OCC)SCn1nnc2ccccc2c1=O | AC50 | 7.39 µM (active) |
| CC(C)CBr | AC50 | inactive |
| ClC1=C(Cl)C2(Cl)C3C(Cl)C(Cl)CC3C1(Cl)C2(Cl)Cl (stereo not given) | AC50 | 11.2 µM (active) |
| CSC(C)(C)C=NO | AC50 | inactive |
| CCOS(=O)(=O)OCC | AC50 | inactive |
| O=[N+]([O-])c1ccc(Cl)c(Cl)c1 | AC50 | inactive |
| O=[N+]([O-])c1ccccc1 | AC50 | 52.7 µM (active) |
| CN(C)C(=O)Cl | AC50 | inactive |
| c1ccc2c(c1)Nc1ccccc1S2 | AC50 | 16.2 µM (active) |
| Nc1cc2c3c(c1)C(c1ccccc1)=N[C@@H](NC(=O)c1cccnc1)C(=O)N3CC2 | AC50 | inactive |
| NC(=O)C(F)(F)C(F)(F)F | AC50 | inactive |
| C=CC(=O)OCC(CC)(COC(=O)C=C)COC(=O)C=C | AC50 | inactive |
| CC(C)(C)OOC(C)(C)C | AC50 | inactive |

---

Read-out: Collagen IV, COL4A1 (gene 1282)
Test: BSK_MyoF_CollagenIV: BioMAP Diversity Plus: MyoF Assay for Collagen IV Biomarker Activity (AID 2284247)
Settings: primary human lung fibroblasts
The source made the active and inactive calls. The calls were made as follows: active = hit-call score of the fitted dose curve at least 0.9, where 1 is the maximum; inactive = score below 0.9.
Outcome codes: yes (active), no (inactive)

| Compound | Assigned category |
| --- | --- |
| CCOP(=S)(NC(C)C)Oc1ccccc1C(=O)OC(C)C (configuration not stated) | no |
| O=S1(=O)OCC2C(CO1)C1(Cl)C(Cl)=C(Cl)C2(Cl)C1(Cl)Cl (configuration not stated) | no |
| CCCCC(CC)COP(=O)(Oc1ccccc1)Oc1ccccc1 (configuration not stated) | yes |
| COP(N)(=S)OC | no |
| CCOP(=S)(OCC)SCSc1ccc(Cl)cc1 | yes |
| Cc1ccc2c(c1N)C(=O)c1ccccc1C2=O | no |
| FC(F)(F)C(F)(C(F)(F)F)C(F)(F)C(F)(F)CC1CO1 (configuration not stated) | no |

---

Read-out: E-selectin (Homo sapiens)
Assay: BSK_3C_Eselectin: BioMAP Diversity Plus: 3C Assay for Eselectin Biomarker Activity (AID 2283015);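 for Outcome: cell surface E-selectin protein quantified by ELISA 24 h after dosing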
Settings: primary human endothelial cells (HUVEC); actives raise or lower the signal
Active and inactive are the calls of the source. Rule for the calls: active = hit-call score of the fitted dose curve at least 0.9, where 1 is the maximum; inactive = score below 0.9.
Outcome codes: 1 (active), 0 (inactive)

| Compound | Assigned category |
| --- | --- |
| ClC(Cl)c1ccccc1 | 0 |
| CC(C)Nc1ccc(Nc2ccccc2)cc1 | 1 |
| COP(N)(=S)OC | 0 |
| c1ccc(OP(Oc2ccccc2)Oc2ccccc2)cc1 | 0 |
| CCOP(=S)(OCC)SCSc1ccc(Cl)cc1 | 0 |
| COP(=O)(O)OC | 0 |
| CCOP(=S)(Oc1ccc([N+](=O)[O-])cc1)c1ccccc1 (stereo not drawn) | 0 |
| CCCCN(CCCC)SN(C)C(=O)Oc1cccc2c1OC(C)(C)C2 | 1 |

---

Molecular target: Androgen receptor (Homo sapiens) (UniProt P10275)
Sequence (P10275 whole entry, looked up): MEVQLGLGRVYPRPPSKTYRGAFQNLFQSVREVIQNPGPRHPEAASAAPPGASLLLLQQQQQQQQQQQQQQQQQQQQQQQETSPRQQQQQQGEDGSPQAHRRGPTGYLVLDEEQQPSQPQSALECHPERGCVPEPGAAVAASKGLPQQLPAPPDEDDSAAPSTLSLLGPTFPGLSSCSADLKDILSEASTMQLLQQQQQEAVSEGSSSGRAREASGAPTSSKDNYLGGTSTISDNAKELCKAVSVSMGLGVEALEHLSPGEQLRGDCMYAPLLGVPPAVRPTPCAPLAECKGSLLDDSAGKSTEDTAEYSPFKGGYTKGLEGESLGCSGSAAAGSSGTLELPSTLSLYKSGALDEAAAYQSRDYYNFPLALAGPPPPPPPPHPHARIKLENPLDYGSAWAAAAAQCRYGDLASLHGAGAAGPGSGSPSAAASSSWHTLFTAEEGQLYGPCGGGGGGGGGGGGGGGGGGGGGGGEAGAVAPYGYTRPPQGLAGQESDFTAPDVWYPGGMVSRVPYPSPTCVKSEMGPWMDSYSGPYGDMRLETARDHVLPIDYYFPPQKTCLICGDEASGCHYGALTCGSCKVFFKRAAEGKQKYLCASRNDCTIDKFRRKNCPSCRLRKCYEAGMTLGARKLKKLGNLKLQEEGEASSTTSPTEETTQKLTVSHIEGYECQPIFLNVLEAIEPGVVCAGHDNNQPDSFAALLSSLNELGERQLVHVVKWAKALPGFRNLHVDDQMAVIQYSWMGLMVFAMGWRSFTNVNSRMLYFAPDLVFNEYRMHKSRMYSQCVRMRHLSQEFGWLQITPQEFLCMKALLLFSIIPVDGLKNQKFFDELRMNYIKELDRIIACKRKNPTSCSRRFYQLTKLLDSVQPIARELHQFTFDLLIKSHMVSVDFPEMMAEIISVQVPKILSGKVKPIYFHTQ
Test: ATG_AR_TRANS: Attagene TRANS-FACTORIAL HepG2 Assay for human Androgen Receptor (AR) (AID 2282973)
Details: HepG2 Attagene TRANS-FACTORIAL AR reporter transcription
Results filed as inconclusive are left out. Activity calls are given as the source filed them. The calls were made as follows: active = hit-call score of the fitted dose curve at least 0.9, where 1 is the maximum; inconclusive = response in the unintended direction; inactive = score below 0.9.
Metric name: outcome

| Molecule | System | Metric name | Value |
| --- | --- | --- | --- |
| Clc1ccc(Oc2ccccc2)cc1 | Androgen receptor (Homo sapiens) (UniProt P10275) | outcome | inactive |
| FC(F)(F)C(F)(C(F)(F)F)C(F)(F)C(F)(F)CC1CO1 (centres undefined) | Androgen receptor (Homo sapiens) (UniProt P10275) | outcome | inactive |
| OCC(F)(F)OC(F)(F)C(F)(F)OC(F)(F)CO | Androgen receptor (Homo sapiens) (UniProt P10275) | outcome | inactive |
| CO/N=C(/C(=O)OC)c1ccccc1COc1ccccc1C | Androgen receptor (Homo sapiens) (UniProt P10275) | outcome | inactive |
| N#C/C=C/c1ccccc1 | Androgen receptor (Homo sapiens) (UniProt P10275) | outcome | inactive |
| NC(=O)C(F)(F)C(F)(F)F | Androgen receptor (Homo sapiens) (UniProt P10275) | outcome | inactive |
| CCOP(=S)(OCC)SCS(=O)(=O)CC | Androgen receptor (Homo sapiens) (UniProt P10275) | outcome | inactive |
| COP(=O)(O)OC | Androgen receptor (Homo sapiens) (UniProt P10275) | outcome | inactive |
| COP(N)(=S)OC | Androgen receptor (Homo sapiens) (UniProt P10275) | outcome | inactive |
| C=CC(=O)OCC(F)(F)C(F)F | Androgen receptor (Homo sapiens) (UniProt P10275) | outcome | inactive |
| CCCCCCCc1ccc(O)cc1 | Androgen receptor (Homo sapiens) (UniProt P10275) | outcome | inactive |
| O=P(OCC(Br)CBr)(OCC(Br)CBr)OCC(Br)CBr (centres undefined) | Androgen receptor (Homo sapiens) (UniProt P10275) | outcome | inactive |
| O=C(O)C=CC(F)(C(F)(F)F)C(F)(F)F | Androgen receptor (Homo sapiens) (UniProt P10275) | outcome | inactive |
| O=S(=O)(F)C(F)(F)C(F)(F)C(F)(F)C(F)(F)C(F)(F)C(F)(F)C(F)(F)C(F)(F)F | Androgen receptor (Homo sapiens) (UniProt P10275) | outcome | inactive |
